- System: HIV-1 (H9/IIIB strain)
- protocol: Multiple round HIV-1 infection assay in MT4-GFP cells (wild type cell assay, Viking)
- Format: cell-based
- condition parameters: Human immunodeficiency virus 1, IIIB, MT4-GFP cells infected with HIV-1 H9/IIIB; 0% NHS condition (RPMI 1640); inhibition of reproductive ratio R0, ~48 h and ~72 h post-infection; read-out: WILD TYPE CELL ASSAY Viking IP (0% NHS)
measured attribute: IC50 (nM)

A selection of reference data follows.
compound	target or system	IC50 / nM
CCC12CC(O)c3c(C(=O)NCc4c(F)cc(F)cc4F)c(=O)c(O)c(n31)C(=O)N(C)C2 (single isomer, unassigned) [Compound 45]	HIV-1 (H9/IIIB strain)	1.1
CN1CC2(C)CC(O)c3c(C(=O)NCc4c(F)ccc(Cl)c4F)c(=O)c(O)c(n32)C1=O (stereo not shown) [Compound 31]	HIV-1 (H9/IIIB strain)	1.7
CCC12CC(O)c3c(C(=O)NCc4c(F)ccc(F)c4F)c(=O)c(O)c(n31)C(=O)N(C)C2 (single isomer, unassigned) [Compound 49]	HIV-1 (H9/IIIB strain)	2.6

1: CCC12CC(O)c3c(C(=O)NCc4c(F)ccc(Cl)c4F)c(=O)c(O)c(n31)C(=O)N(C)C2 (stereo not shown) [Compound 55]
2: CN1CC2(C)CC(O)c3c(C(=O)NCc4c(F)cc(F)cc4F)c(=O)c(O)c(n32)C1=O (single isomer, unassigned)
3: CN1CC2(C)CC(O)c3c(C(=O)NCc4ccc(F)cc4)c(=O)c(O)c(n32)C1=O (single isomer, unassigned) [Compound 21]
Q: Arrange these compounds by their IC50, starting with the largest number. Lab note: final answer is the ordered label list.
A: 3, 1, 2
(3: 3.7 nM, 1: 2.2 nM, 2: 1.4 nM)
